The following compounds are listed with their measured Cell survival rate values.
tested on: HOS; experiment: Cytotoxicity test (MTT), HOS; type: cell-based; conditions: 10^−6 M, cultured for 72 hrs, in comparison with the control group
All answers are understood in %, so give the number only.

| compound | assayed target | value reported |
| --- | --- | --- |
| CNc1nc(-c2ccc(OCCCCCOc3ccc(C(=N)NO)cc3)cc2)c(CN2CCOCC2)s1 [Example 50] | HOS | 102 |

Enter recorded Cell survival rate with HOS for Cc1nc(-c2ccc(OCCCCCOc3ccc(C(=N)NO)cc3)cc2)c(NC(=O)c2ccncc2)s1 [Example 38] here.
117.6

Enter recorded Cell survival rate with HOS for Cc1nc(-c2ccc(OCCCCCOc3ccc(C(=N)NO)cc3)cc2)c(CN2CCSCC2)s1 [Example 10] here.
101

Enter recorded Cell survival rate with HOS for Cc1nc(-c2ccc(OCCCCCOc3ccc(C(=N)NO)cc3)cc2)c(CNCCN2CCOCC2)s1 [Example 17] here.
99
